Listed next: entries and their corresponding Trial 2 Abs 405 nm.
- Protocol Description: ELASA (ELISA-like) plate screening of aptamers against 13-HODE / biotinylated 13-HODE
- Format: binding
- Condition Info: ELASA trial 2; 13-HODE / biotinylated 13-HODE aptamers; absorbance 10-15 minutes after final addition of ABTS substrate
Readout Kind: Trial 2 Abs 405 nm

- Molecule: "B13-10bR: DNA aptamer clone, biotinylated 13-HODE target (nucleic acid, DNA, backbone not given here, DNA aptamer clone, biotinylated 13-HODE target) DNA: ATCCGTCACACCTGCTCTGCGGACAGCGGTTGCGCATATATCGTGGCAGTGGGCTGGTGTTGGCTCCCGTAT"
  Readout Kind: "Trial 2 Abs 405 nm"
  Experimental Result: 1.214
- Molecule: "H13-1/2-4/6-8/14-18/20F: DNA aptamer clone, 13-HODE target (nucleic acid, DNA, backbone not given here, DNA aptamer clone, 13-HODE target) DNA: ATACGGGAGCCAACACCACAAAGTTTAGCGTTATGCAACTCCCCCTTATACTCGAGAGCAGGTGTGACGGAT"
  Readout Kind: "Trial 2 Abs 405 nm"
  Experimental Result: 1.199
- Molecule: "B13-1a/4/6/15/17/19/20R: DNA aptamer clone, biotinylated 13-HODE target (nucleic acid, DNA, backbone not given here, DNA aptamer clone, biotinylated 13-HODE target) DNA: ATCCGTCACACCTGCTCTCGAGTATAAGGGGGAGTTGCATAACGCTAAACTTTGTGGTGTTGGCTCCCGTAT"
  Readout Kind: "Trial 2 Abs 405 nm"
  Experimental Result: 1.595
- Molecule: "5′-ATCCGTCACACCTGCTCTGGGGGGGGAAGCTCGTGGTATAAGGGGCGTTGAGGTGGTGTTGGCTCCCGTAT-3′ (nucleic acid, DNA, backbone not given here, DNA aptamer for the OLAM 13-HODE) DNA: ATCCGTCACACCTGCTCTGGGGGGGGAAGCTCGTGGTATAAGGGGCGTTGAGGTGGTGTTGGCTCCCGTAT"
  Readout Kind: "Trial 2 Abs 405 nm"
  Experimental Result: 1.885

meta.source: patent US10100317B2
